# TARGET_OR_SYSTEM: Histone-lysine N-methyltransferase EHMT2 (Homo sapiens) (UniProt Q96KQ7)
# Sequence (Q96KQ7 913-1193 limits assumed): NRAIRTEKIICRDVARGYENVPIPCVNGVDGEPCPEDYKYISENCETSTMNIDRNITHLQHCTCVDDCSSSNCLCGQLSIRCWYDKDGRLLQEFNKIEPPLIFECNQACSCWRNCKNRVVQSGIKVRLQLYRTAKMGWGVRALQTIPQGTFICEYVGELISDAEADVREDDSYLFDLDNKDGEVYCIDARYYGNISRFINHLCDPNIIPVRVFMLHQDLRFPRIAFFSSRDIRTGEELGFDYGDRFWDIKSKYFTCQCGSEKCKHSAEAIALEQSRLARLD
# ASSAY_COMMENT: qHTS Assay for Inhibitors of Histone Lysine Methyltransferase G9a; note: nearly all actives have a fitted effect of over 75% in size; note: potency is the fitted concentration of half-maximal effect
# STATED_CONDITIONS: G9a H3K9 monomethylation, AlphaScreen, 2 h; series mostly up to 59 µM
Out of some 350,000 compounds screened, about 31,000 (8.9%) were called active. About 15% were inconclusive and are not listed. The entries come from a sample that favours actives as a whole.
MEASURED_ATTRIBUTE: Potency

Example entries and their recorded answers appear below.
>>> meas_value("Cc1ccc(Cl)cc1-n1ncc2c(N3CCC(C(N)=O)CC3)ncnc21")
"inactive"
>>> meas_value("CCOC(=O)N1CCN(C(=O)C2CCN(S(=O)(=O)c3cc(Cl)ccc3OCC)CC2)CC1")
"inactive"
>>> meas_value("O=C(COC(=O)CCc1nc2ccccc2c(=O)[nH]1)Nc1ccc(N2CCOCC2)cc1")
"50.1 µM (active)"
>>> meas_value("Cc1cccc(NC(=S)NCCN(C2CCCCC2)C2CCCC2)c1")
"inactive"
>>> meas_value("O=S(=O)(c1ccc(F)cc1)N1CCN(Cc2ccccc2C(F)(F)F)CC1")
"10 µM (active)"
>>> meas_value("CCCN(CCC)CCCNC(=O)Cn1ncc2c3ccccc3n(Cc3ccccc3)c2c1=O")
"inactive"

Hi! What's the reported Potency for CC1=CC(C)(C)Nc2ccc(OC(=O)CN3C(=O)C4CCCCC4C3=O)cc21 (centres undefined) on Histone-lysine N-methyltransferase EHMT2 (Homo sapiens) (UniProt Q96KQ7)?
inactive

Then `COc1cccc(/C=C/C(=O)OCC(=O)N2CCCc3ccccc32)c1` ?
inactive

Then `CCc1ccc(S(=O)(=O)c2nnn3c2nc(N2CCN(CC)CC2)c2sccc23)cc1` ?
inactive

Then CN1C(=O)CC(c2ccccc2)C1=O (centres undefined) ?
inactive

Then COC(=O)c1ccccc1NC(=O)C(Cc1ccccc1)N1Cc2ccccc2C1=O (centres undefined) ?
inactive

Then `Cc1ccc(S(=O)(=O)N2CCN(Cc3cccc(C)c3O)CC2)cc1` ?
inactive

Then `CCOc1ccc(N2C(=O)/C(=C/c3ccc(C)o3)N(C)C2=S)cc1` ?
3.55 µM (active)

Then `O=C(O)CCC(=O)NCc1ccc(C(=O)O)cc1` ?
inactive

====

# TARGET_OR_SYSTEM: Histone-lysine N-methyltransferase EHMT2 (Homo sapiens) (UniProt Q96KQ7)
# ASSAY_COMMENT: qHTS Assay for Inhibitors of Histone Lysine Methyltransferase G9a; note: nearly all actives have a fitted effect of over 75% in size
# STATED_CONDITIONS: G9a H3K9 monomethylation, AlphaScreen, 2 h; series mostly up to 59 µM
The campaign covered roughly 350,000 compounds. About 31,000 (8.9%) were called active. About 15% were inconclusive and are not listed. Calls follow the shape of the dose curve; as a rule, active = well fitted inhibition curve with a large enough effect; inconclusive = small, poorly fitted or top-dose-only effect; inactive = no such curve, though single readings can be large or run the other way. This excerpt belongs to a sample that is enriched for actives.
Your response should consist of one outcome taken from yes for active, no for inactive

>>> category("O=C(COC(=O)Cn1cnc2ccccc2c1=O)NCc1ccccc1Cl")
"no"

Tell me the assay call for Cn1c(=O)c2c(n3c4ccccc4nc13)NC(=O)CC2c1cccc(Cl)c1 (stereo not drawn) please.
no

Then CC(CCO)Nc1nc2c([nH]1)c(=O)n(C)c(=O)n2C (stereo not drawn) ?
no

====

# TARGET_OR_SYSTEM: Histone-lysine N-methyltransferase EHMT2 (Homo sapiens) (UniProt Q96KQ7)
# ASSAY_COMMENT: qHTS Assay for Inhibitors of Histone Lysine Methyltransferase G9a; note: nearly all actives have a fitted effect of over 75% in size
# STATED_CONDITIONS: G9a H3K9 monomethylation, AlphaScreen, 2 h; series mostly up to 59 µM
Out of some 350,000 compounds screened, about 31,000 (8.9%) were called active. About 15% were inconclusive and are not listed. Calls follow the shape of the dose curve; as a rule, active = well fitted inhibition curve with a large enough effect; inconclusive = small, poorly fitted or top-dose-only effect; inactive = no such curve, though single readings can be large or run the other way. The sample holds actives, similar compounds and a random draw of the others, so the mix is not that of the screen.
Your response should consist of one outcome taken from active, inactive

>>> category("CC(C)C(=O)Nc1nc2c(s1)CC(C(C)(C)C)CC2 (stereo unspecified)")
"inactive"
>>> category("O=C(NCc1cccnc1)C(=O)Nc1nc(-c2ccccc2)cs1")
"inactive"
>>> category("Cc1nc2ccc(S(=O)(=O)N(CC(=O)Nc3ccc(F)cc3)Cc3ccccc3)cc2s1")
"inactive"
>>> category("COc1ccc2nc(N3CCN(C(=O)c4ccc([N+](=O)[O-])o4)CC3)sc2c1")
"inactive"
>>> category("COc1cc(C(=O)N2CCN(C(=O)COc3cccc(C)c3)CC2)cc(OC)c1OC")
"inactive"

Would you kindly look at the next entry?
Tell me the assay call for `NC(=S)c1ccc(C(N)=S)o1` please.
active
